- targetUnderTest: GnRHR (Homo sapiens)
- Construct: host or cells: CHO-K1 (CHO-K1/GnRHR/Ga15)
- Sequence (P30968 whole entry): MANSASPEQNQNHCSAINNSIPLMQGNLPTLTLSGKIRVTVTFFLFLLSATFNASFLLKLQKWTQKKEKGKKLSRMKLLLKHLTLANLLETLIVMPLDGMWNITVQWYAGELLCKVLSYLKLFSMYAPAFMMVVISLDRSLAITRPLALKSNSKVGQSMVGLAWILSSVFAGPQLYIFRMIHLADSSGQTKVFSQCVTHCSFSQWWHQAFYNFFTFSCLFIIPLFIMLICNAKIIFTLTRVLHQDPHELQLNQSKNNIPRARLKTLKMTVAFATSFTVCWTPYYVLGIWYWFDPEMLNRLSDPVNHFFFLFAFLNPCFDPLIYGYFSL
- test: Calcium assay in CHO-K1 cells (Genscript), FLIPR
- Type: cell-based
- measurementContext: CHO-K1/GnRHR/Ga15 cells, relative to agonist control, read-out: GNRHR Stimulation at 1 μM
Non-standard residues stand in square brackets, D forms with d. Residues, ends and D or L forms follow the SMILES beside them. pGlu = O=C1CC[C@@H](C(=O)O)N1
endpoint: activation at 1 µM (%)
Field: numeric (%). Do not append units.

Prompt: I have this molecule here, CCNC(=O)[C@@H]1CCCN1C(=O)[C@H](CCCNC(=N)N)NC(=O)[C@H](Cc1c[nH]c2ccccc12)NC(=O)[C@@H](CC(C)C)NC(=O)[C@H](Cc1ccc(O)cc1)NC(=O)[C@H](CO)NC(=O)[C@H](Cc1c[nH]c2ccccc12)NC(=O)[C@H](Cc1c[nH]cn1)NC(=O)[C@@H]1CCC(=O)N1 [Compound 44] ([pGlu]HWSY[dL]WRP-NHEt) , and I need its recorded activation at 1 µM.
Completion: 111
